# subject-of-test: wild-type Androgen Receptor (AR-wt) (Homo sapiens (Human), UniProt P10275)
# Sequence (P10275 whole entry): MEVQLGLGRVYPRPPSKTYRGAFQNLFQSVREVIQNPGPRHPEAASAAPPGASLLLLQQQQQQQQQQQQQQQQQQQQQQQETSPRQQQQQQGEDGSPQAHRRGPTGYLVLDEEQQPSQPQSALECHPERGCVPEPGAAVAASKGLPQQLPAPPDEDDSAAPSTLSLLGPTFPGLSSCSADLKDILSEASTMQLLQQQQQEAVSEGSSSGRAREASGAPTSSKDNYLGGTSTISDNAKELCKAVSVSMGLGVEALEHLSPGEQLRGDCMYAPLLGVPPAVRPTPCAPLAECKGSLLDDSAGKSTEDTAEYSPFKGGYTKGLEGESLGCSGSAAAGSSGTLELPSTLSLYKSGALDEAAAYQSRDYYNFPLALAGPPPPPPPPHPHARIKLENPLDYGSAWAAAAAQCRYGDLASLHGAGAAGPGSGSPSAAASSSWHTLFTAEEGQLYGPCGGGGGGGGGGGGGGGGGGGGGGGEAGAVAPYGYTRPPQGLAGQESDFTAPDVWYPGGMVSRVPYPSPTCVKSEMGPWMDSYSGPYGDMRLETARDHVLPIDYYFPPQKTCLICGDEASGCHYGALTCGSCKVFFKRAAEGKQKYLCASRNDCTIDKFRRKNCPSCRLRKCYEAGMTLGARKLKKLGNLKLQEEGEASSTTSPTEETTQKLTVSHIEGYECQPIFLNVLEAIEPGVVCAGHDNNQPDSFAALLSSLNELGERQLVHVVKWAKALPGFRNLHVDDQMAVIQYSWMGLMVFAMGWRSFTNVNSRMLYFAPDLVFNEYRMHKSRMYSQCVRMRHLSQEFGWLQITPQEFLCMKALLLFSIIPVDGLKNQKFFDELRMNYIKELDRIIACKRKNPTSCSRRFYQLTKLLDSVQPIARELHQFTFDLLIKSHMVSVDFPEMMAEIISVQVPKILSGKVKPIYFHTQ
# test-description: LNCaP-AR-wt ANT reporter assay (antagonist mode)
# Format: cell-based
# condition-details: antagonist mode; pIC50 = −Log10(IC50 in Molar); read-out: LNCaP-AR-wt ANT pIC50 (converted)
endpoint: IC50 (µM)
Answer format: numeric, µM implied, no suffix.

For orientation, consider the following solved cases.
compound	IC50 / µM
COCCn1ncc2ccc(N3C(=S)N(c4cnc(C#N)c(C(F)(F)F)c4)C(=O)C34CCC4)cc21	1.23
N#Cc1ncc(N2C(=O)C3(CCC3)N(c3ccc(C(=O)NCC4CCNCC4)c(F)c3)C2=S)cc1C(F)(F)F	0.891
COc1cc(N2C(=O)C3(CCC3)N(c3ccc4c(cnn4C4CCN(C)CC4)c3)C2=S)cnc1C#N	0.55

Problem: Requested read-out: IC50. Entry: COC(=O)C1CCC(N2C(=S)N(c3cnc(C#N)c(C(F)(F)F)c3)C(=O)C23CCC3)CC1 (stereo not shown)
Result: 0.49

Problem: Quick one: IC50 for C=CCN1CCC(Oc2ccc(N3C(=S)N(c4cnc(C#N)c(C(F)(F)F)c4)C(=O)C34CCC4)cn2)CC1 ?
Result: 0.0741

* * *

# subject-of-test: wild-type Androgen Receptor (AR-wt) (Homo sapiens (Human), UniProt P10275)
# test-description: LNCaP-AR-wt ANT reporter assay (antagonist mode)
# Assay type: cell-based
# condition-details: maximum % inhibition of R1881 control response over the tested concentration range; read-out: LNCaP-AR-wt ANT MAX % Inh
endpoint: Emax (%)
Dear colleague, please return just the value in %, with no unit written.

compound	measurement
CN1CC2CCC(C1)C2Oc1ccc(N2C(=S)N(c3cnc(C#N)c(C(F)(F)F)c3)C(=O)C23CCC3)cn1 (stereo not drawn)	102
CCOC(=O)N1CCN(c2ccc(N3C(=S)N(c4cnc(C#N)c(C(F)(F)F)c4)C(=O)C34CCC4)cc2)CC1	101

Let's switch to this compound now.
Problem: Param item = CN1CC2(CC(Oc3ccc(N4C(=S)N(c5cnc(C#N)c(C(F)(F)F)c5)C(=O)C45CCC5)cc3)C2)C1 ; retrieve measured Emax.
Result: 102

* * *

Overview of reported Emax across a group of molecules:
# subject-of-test: F876L mutant Androgen Receptor (AR-F876L) (Homo sapiens (Human), UniProt P10275, F877L)
# Sequence (P10275 whole entry F877L): as the sequence (P10275 whole entry) above, with F877L counted along it
# test-description: LNCaP-AR-F876L AG reporter assay (agonist mode)
# Assay type: cell-based
# condition-details: maximum % stimulation (agonist response) over the tested concentration range; read-out: LNCaP-AR-F876L AG MAX % Stim
Return type: number; implicit unit %.

Problem: Which measured Emax value corresponds to COc1cc(N2C(=O)C3(CCC3)N(c3ccc(OC4CCNCC4)cc3)C2=S)cnc1C#N [Cpd 154] ?
Result: -0.1

* * *

# subject-of-test: F876L mutant Androgen Receptor (AR-F876L) (Homo sapiens (Human), UniProt P10275, F877L)
# test-description: LNCaP-AR-F876L ANT reporter assay (antagonist mode)
# Assay type: cell-based
# condition-details: antagonist mode; pIC50 = −Log10(IC50 in Molar); read-out: LNCaP-AR-F876L ANT pIC50 (converted)
A collection of compounds and their measured IC50
// return numeric value only (unit: nM, not printed)

Below, each entry is followed by its recorded IC50 result.
compound	endpoint	measurement
N#Cc1ncc(N2C(=O)C3(CCC3)N(c3ccc(OC4CCS(=O)(=O)CC4)cc3)C2=S)cc1C(F)(F)F	IC50	363
CN1CC[C@H](Oc2ccc(N3C(=S)N(c4cnc(C#N)c(C(F)(F)F)c4)C(=O)C34CCC4)cc2)[C@H](F)C1 (racemic)	IC50	49

Problem: Entry N#Cc1ncc(N2C(=O)C3(CCC3)N(c3ccc(OC4CCCNCC4)cc3)C2=S)cc1C(F)(F)F (centres unmarked) [Cpd 17] , system F876L mutant Androgen Receptor (AR-F876L) (Homo sapiens (Human), UniProt P10275, F877L): what IC50 was measured?
Result: 457

Problem: Look up IC50 with F876L mutant Androgen Receptor (AR-F876L) (Homo sapiens (Human), UniProt P10275, F877L) for this compound: N#Cc1ncc(N2C(=O)C3(CCC3)N(c3ccc(SC4CCNCC4)cc3)C2=S)cc1C(F)(F)F
Result: 224

Problem: Recall the recorded IC50 for N#Cc1ncc(N2C(=O)C3(CCC3)N(c3ccc(CN4CCNC(=O)C4)cc3)C2=S)cc1C(F)(F)F with F876L mutant Androgen Receptor (AR-F876L) (Homo sapiens (Human), UniProt P10275, F877L) and state it.
Result: 115

Problem: Checklist item: IC50 tested on F876L mutant Androgen Receptor (AR-F876L) (Homo sapiens (Human), UniProt P10275, F877L), entry Cc1cc(N2C(=O)C3(CCC3)N(c3cnc(OC4CCN(CCO)CC4)nc3)C2=S)cnc1C#N , value?
Result: 708

Problem: Field: IC50 (F876L mutant Androgen Receptor (AR-F876L) (Homo sapiens (Human), UniProt P10275, F877L)). Entry: CC(C)(C)OC(=O)N1CCN(C(=O)c2ccc(N3C(=S)N(c4cnc(C#N)c(C(F)(F)F)c4)C(=O)C34CCC4)cc2)CC1
Result: 1120

Problem: Request - read-out IC50 | tested on F876L mutant Androgen Receptor (AR-F876L) (Homo sapiens (Human), UniProt P10275, F877L) | compound CN1CCC(c2nc3cc(N4C(=S)N(c5cnc(C#N)c(C(F)(F)F)c5)C(=O)C45CCC5)ccc3[nH]2)CC1
Result: 1350

* * *

molecules and their reported Emax
# subject-of-test: F876L mutant Androgen Receptor (AR-F876L) (Homo sapiens (Human), UniProt P10275, F877L)
# test-description: LNCaP-AR-F876L AG reporter assay (agonist mode)
# Format: cell-based
# condition-details: maximum % stimulation (agonist response) over the tested concentration range; read-out: LNCaP-AR-F876L AG MAX % Stim
Give just the numeric value; % need not be written.

CC(C)(C)OC(=O)N1CCN(Cc2ccc(N3C(=S)N(c4cnc(C#N)c(C(F)(F)F)c4)C(=O)C34CCC4)cc2)CC1 0.5
Cc1cc(N2C(=O)C3(CCC3)N(c3ccc(OC4CCN(CCO)CC4)nc3)C2=S)cnc1C#N 0.5
N#Cc1ncc(N2C(=O)C3(CCC3)N(c3ccc(OC4CCN(CCF)CC4)cc3)C2=S)cc1C(F)(F)F 0.3

Problem: What Emax value was documented for this molecule, CN1CCC[C@H](CNC(=O)c2ccc(N3C(=S)N(c4cnc(C#N)c(C(F)(F)F)c4)C(=O)C34CCC4)cc2)C1 ?
Result: 0.4

Problem: Can you share its Emax? I mean this molecule: CCOC(=O)N1CCN(C(=O)c2ccc(N3C(=S)N(c4cnc(C#N)c(C(F)(F)F)c4)C(=O)C34CCC4)cc2)CC1
Result: 0.1

Problem: Which Emax value belongs to N#Cc1ncc(N2C(=O)C3(CCC3)N(c3ccc(OC4CCN(CC(F)(F)F)CC4)nc3)C2=S)cc1C(F)(F)F ?
Result: 0.9

Problem: // Emax lookup, key: N#CCN1CCC(Oc2ccc(N3C(=S)N(c4cnc(C#N)c(C(F)(F)F)c4)C(=O)C34CCC4)cc2)CC1
Result: -0.1

Problem: What value of measured Emax is listed for N#Cc1ncc(N2C(=O)C3(CCC3)N(c3ccc4nn(CC5CCNCC5)cc4c3)C2=S)cc1C(F)(F)F ?
Result: 0.8

Problem: State the recorded Emax for this entry: Cc1cc(N2C(=O)C3(CCC3)N(c3ccc(N4CCNC4=O)cc3)C2=S)cnc1C#N
Result: 0.5

Problem: For the molecule shown here, C[C@@H]1OC(c2ccc(N3C(=S)N(c4cnc(C#N)c(C(F)(F)F)c4)C(=O)C34CCC4)cc2)=C[C@H](O)[C@H]1O , give the reported Emax.
Result: -0.1

* * *

# subject-of-test: F876L mutant Androgen Receptor (AR-F876L) (Homo sapiens (Human), UniProt P10275, F877L)
# test-description: LNCaP-AR-F876L ANT reporter assay (antagonist mode)
# Type: cell-based
# condition-details: antagonist mode; maximum % inhibition of R1881 control response over tested concentration range; read-out: LNCaP-AR-F876L ANT MAX % Inh
Reported Emax values for the following compounds.
Quick note: give the figure in %, leave out the unit.

compound	subject-of-test	endpoint-unit	Emax
N#Cc1ncc(N2C(=O)C3(CCC3)N(c3ccc(C(=O)NC[C@@H]4CCCNC4)c(F)c3)C2=S)cc1C(F)(F)F	F876L mutant Androgen Receptor (AR-F876L) (Homo sapiens (Human), UniProt P10275, F877L)	%	101
CN1CCC(CNC(=O)c2ccc(N3C(=S)N(c4cnc(C#N)c(C(F)(F)F)c4)C(=O)C34CCC4)cc2F)CC1	F876L mutant Androgen Receptor (AR-F876L) (Homo sapiens (Human), UniProt P10275, F877L)	%	101
COc1cc(N2C(=O)C3(CCC3)N(c3ccc4nn(C5CCNCC5)cc4c3)C2=S)cnc1C#N	F876L mutant Androgen Receptor (AR-F876L) (Homo sapiens (Human), UniProt P10275, F877L)	%	99.9

Problem: Request body: readout Emax, system F876L mutant Androgen Receptor (AR-F876L) (Homo sapiens (Human), UniProt P10275, F877L), query CN1CCC12CC(Oc1ccc(N3C(=S)N(c4cnc(C#N)c(C(F)(F)F)c4)C(=O)C34CCC4)cn1)C2 (stereo not shown) . Return the value.
Result: 101

Problem: Find the measured Emax: item CN1CCC(C)(Oc2ccc(N3C(=S)N(c4cnc(C#N)c(C(F)(F)F)c4)C(=O)C34CCC4)cn2)CC1 , target or system F876L mutant Androgen Receptor (AR-F876L) (Homo sapiens (Human), UniProt P10275, F877L).
Result: 100

Problem: Could you share what Emax was measured for CN1CC[C@H](CNC(=O)c2ccc(N3C(=S)N(c4cnc(C#N)c(C(F)(F)F)c4)C(=O)C34CCC4)cc2)C1 , tested on F876L mutant Androgen Receptor (AR-F876L) (Homo sapiens (Human), UniProt P10275, F877L)?
Result: 99.3

Problem: Which Emax is reported with F876L mutant Androgen Receptor (AR-F876L) (Homo sapiens (Human), UniProt P10275, F877L) for this entry: CN1CC(CNC(=O)c2ccc(N3C(=S)N(c4cnc(C#N)c(C(F)(F)F)c4)C(=O)C34CCC4)cc2)C1 ?
Result: 98.7

Problem: Query Emax on F876L mutant Androgen Receptor (AR-F876L) (Homo sapiens (Human), UniProt P10275, F877L) for COc1cc(N2C(=O)C3(CCC3)N(c3ccc4nn(C5CCN(C)CC5)cc4c3)C2=S)cnc1C#N
Result: 101

Problem: What is its Emax for F876L mutant Androgen Receptor (AR-F876L) (Homo sapiens (Human), UniProt P10275, F877L)? Entry: N#Cc1ncc(N2C(=O)C3(CCC3)N(c3ccc(CN4CCNCC4)cc3)C2=S)cc1Cl
Result: 100

Problem: Form field: Emax recorded for CN1CCC(CN(C)C(=O)c2ccc(N3C(=S)N(c4cnc(C#N)c(C(F)(F)F)c4)C(=O)C34CCC4)cc2)CC1 with F876L mutant Androgen Receptor (AR-F876L) (Homo sapiens (Human), UniProt P10275, F877L) (enter value)
Result: 100
